The measurements presented in this section are drawn from the supplement of paper PMC12669032.

- Tested on: Lactobacillus paracasei
- protocol description: growth AUC relative to DMSO control (median of replicates) (fraction); higher = more growth (less inhibition), active = hit call of the paper;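 active = AUC reduced over 20% with Padj below 0.05 in at least 2 of 3 replicates; inactive = otherwise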
- condition summary: 20 µM; 24 h
Form entry, call: pick from active, inactive

Illustrative cases are given below, each with its answer.
C=CCOC(Cn1ccnc1)c1ccc(Cl)cc1Cl.O=S(=O)(O)O (configuration not stated) | inactive
Cc1cc(C(C#N)c2ccc(Cl)cc2)c(Cl)cc1NC(=O)c1cc(I)cc(I)c1O (configuration not stated) | active
CC1(C)CCC(Cc2ccc(Cl)cc2)C1(O)Cn1cncn1 (configuration not stated) | inactive
CCOP(=S)(OCC)Oc1ccc(Cl)cc1Cl | inactive
COP(=O)(OC)Oc1ccc([N+](=O)[O-])cc1 | inactive
N#Cc1nn(-c2c(Cl)cc(C(F)(F)F)cc2Cl)c(N)c1S(=O)C(F)(F)F (configuration not stated) | inactive
CCOP(=S)(OCC)SCSC(C)(C)C | inactive
CCC(=O)Nc1ccc(Cl)c(Cl)c1 | inactive
Cc1cc(Cl)ccc1N=CN(C)C.Cl | inactive
O=NN(CCO)CCO | inactive

Query: What outcome does the record of this test show for CCOC1Oc2ccc(OS(C)(=O)=O)cc2C1(C)C (configuration not stated) ?
Response: inactive

Query: Hi team, can someone confirm the assay call for O=[N+]([O-])c1ccc(Oc2ccc(C(F)(F)F)cc2[N+](=O)[O-])cc1 ?
Response: inactive
